All figures here come from ChEMBL document CHEMBL1201862.

Can you tell me GI50 for the items I'm about to list?
System: ACHN
Assay: NCI tumour cell line growth inhibition, 48 h
Active and inactive are the calls of the source. Cut-off read from the data, not from the text of the source: active = GI50 up to about 1.1 µM and inactive = higher.

Enquiry: Form entry - test system: ACHN; read-out: GI50; compound: COC(=O)/C=C/c1ccc2nncnc2c1.COC(=O)/C=C\c1ccc2nncnc2c1
Return: > 100 µM (inactive)

Enquiry: Form entry - test system: ACHN; read-out: GI50; compound: CC1CN=C(N(C)C(=O)Nc2ccc(Cl)c(Cl)c2)S1 (stereo unspecified)
Return: 11 µM (inactive)

Enquiry: Form entry - test system: ACHN; read-out: GI50; compound: COc1cc2c3c(c1OC)C(=O)C=C3N(S(=O)(=O)c1ccc(C)cc1)CC2
Return: 75.9 µM (inactive)

Enquiry: Form entry - test system: ACHN; read-out: GI50; compound: O=C1CCC(=O)C12CCc1cccc(O)c12
Return: > 100 µM (inactive)

Enquiry: Form entry - test system: ACHN; read-out: GI50; compound: CN(N=O)C(=N)NC(=O)c1ccccc1
Return: > 100 µM (inactive)

Enquiry: Form entry - test system: ACHN; read-out: GI50; compound: CCOP(=O)(OCC)/C(F)=C/c1ccccc1
Return: > 100 µM (inactive)

Enquiry: Form entry - test system: ACHN; read-out: GI50; compound: COC(=O)Nc1nc2cc(NC(=O)c3ccc(I)cc3)ccc2[nH]1
Return: > 100 µM (inactive)

Enquiry: Form entry - test system: ACHN; read-out: GI50; compound: O=C1CCCNn2c(nc3ncccc3c2=O)N1
Return: > 100 µM (inactive)

Enquiry: Form entry - test system: ACHN; read-out: GI50; compound: O=C1C=CC(=O)c2c1cc([N+](=O)[O-])c1ccoc21
Return: 1.82 µM (inactive)

Enquiry: Form entry - test system: ACHN; read-out: GI50; compound: CC(=O)c1cccc(Nc2nc3ccccc3c3[nH]c4ccccc4c23)c1
Return: 3.63 µM (inactive)

Enquiry: Form entry - test system: ACHN; read-out: GI50; compound: C#CCSc1nc(N)c2ncn(C3OC(COP(=O)(O)O)C(O)C3O)c2n1 (stereo unspecified)
Return: > 239 µM (inactive)

Enquiry: Form entry - test system: ACHN; read-out: GI50; compound: c1ccc2nc(-c3ccc4c(c3)OCO4)ccc2c1
Return: 26.5 µM (inactive)

Enquiry: Form entry - test system: ACHN; read-out: GI50; compound: C[C@]12CC[C@H](O)CC1=CC[C@@H]1C2CC[C@]2(C)C(=O)N(N)C(=O)CC12 (stereo partly specified)
Return: > 100 µM (inactive)

Enquiry: Form entry - test system: ACHN; read-out: GI50; compound: Cc1nc2c(Cl)cc(Cl)cc2c2c1CCO2
Return: > 100 µM (inactive)

Enquiry: Form entry - test system: ACHN; read-out: GI50; compound: O=C(O)CCSC(=O)Nc1ccc(/N=N/c2ccccc2)cc1
Return: 43.6 µM (inactive)

Enquiry: Form entry - test system: ACHN; read-out: GI50; compound: O=C(Nc1ccc(Cl)cc1)[C-](C(=O)c1ccc(Br)cc1)[n+]1cccc(-c2ccc(Cl)cc2)n1
Return: 4.84 µM (inactive)

Enquiry: Form entry - test system: ACHN; read-out: GI50; compound: [O-][S+]1c2ccccc2N=C(c2ccc3ccccc3c2)CC1c1ccccc1 (stereo unspecified)
Return: 16.4 µM (inactive)

Enquiry: Form entry - test system: ACHN; read-out: GI50; compound: CCOC(=O)[C@H]1Nc2ccc(Cl)cc2[C@H]2CCC[C@@H]12
Return: > 100 µM (inactive)

Enquiry: Form entry - test system: ACHN; read-out: GI50; compound: CNC(=O)CC1NC(=O)c2csc(n2)-c2ccc(-c3nc(C4=NC(C(=O)N5CCCC5C(N)=O)CO4)cs3)nc2-c2csc(n2)-c2csc(n2)C(C(C)C)NC(=O)CNC(=O)c2csc(n2)C(C(C)C)NC(=O)c2nc1sc2C (stereo unspecified)
Return: 4.37 µM (inactive)

Enquiry: Form entry - test system: ACHN; read-out: GI50; compound: CCN(CC)c1ccc2cc(-c3nnc(-c4ccccc4O)o3)c(=O)oc2c1
Return: 10.2 µM (inactive)

Enquiry: Form entry - test system: ACHN; read-out: GI50; compound: COc1c(CC=C(C)C)c(O)c(C(CC(C)C)c2c(O)c3c(c(C(C)=O)c2O)OC(C(C)(C)O)C3)c(O)c1C(C)=O (stereo unspecified)
Return: 4.42 µM (inactive)
